# tested.target: ΔF508-CFTR (Homo sapiens, UniProt P13569, DEL508-508)
# Construct: host or cells: CFBE41o-, doxycycline-inducible
# Sequence (P13569 with tags, fused parts or gaps DEL508-508): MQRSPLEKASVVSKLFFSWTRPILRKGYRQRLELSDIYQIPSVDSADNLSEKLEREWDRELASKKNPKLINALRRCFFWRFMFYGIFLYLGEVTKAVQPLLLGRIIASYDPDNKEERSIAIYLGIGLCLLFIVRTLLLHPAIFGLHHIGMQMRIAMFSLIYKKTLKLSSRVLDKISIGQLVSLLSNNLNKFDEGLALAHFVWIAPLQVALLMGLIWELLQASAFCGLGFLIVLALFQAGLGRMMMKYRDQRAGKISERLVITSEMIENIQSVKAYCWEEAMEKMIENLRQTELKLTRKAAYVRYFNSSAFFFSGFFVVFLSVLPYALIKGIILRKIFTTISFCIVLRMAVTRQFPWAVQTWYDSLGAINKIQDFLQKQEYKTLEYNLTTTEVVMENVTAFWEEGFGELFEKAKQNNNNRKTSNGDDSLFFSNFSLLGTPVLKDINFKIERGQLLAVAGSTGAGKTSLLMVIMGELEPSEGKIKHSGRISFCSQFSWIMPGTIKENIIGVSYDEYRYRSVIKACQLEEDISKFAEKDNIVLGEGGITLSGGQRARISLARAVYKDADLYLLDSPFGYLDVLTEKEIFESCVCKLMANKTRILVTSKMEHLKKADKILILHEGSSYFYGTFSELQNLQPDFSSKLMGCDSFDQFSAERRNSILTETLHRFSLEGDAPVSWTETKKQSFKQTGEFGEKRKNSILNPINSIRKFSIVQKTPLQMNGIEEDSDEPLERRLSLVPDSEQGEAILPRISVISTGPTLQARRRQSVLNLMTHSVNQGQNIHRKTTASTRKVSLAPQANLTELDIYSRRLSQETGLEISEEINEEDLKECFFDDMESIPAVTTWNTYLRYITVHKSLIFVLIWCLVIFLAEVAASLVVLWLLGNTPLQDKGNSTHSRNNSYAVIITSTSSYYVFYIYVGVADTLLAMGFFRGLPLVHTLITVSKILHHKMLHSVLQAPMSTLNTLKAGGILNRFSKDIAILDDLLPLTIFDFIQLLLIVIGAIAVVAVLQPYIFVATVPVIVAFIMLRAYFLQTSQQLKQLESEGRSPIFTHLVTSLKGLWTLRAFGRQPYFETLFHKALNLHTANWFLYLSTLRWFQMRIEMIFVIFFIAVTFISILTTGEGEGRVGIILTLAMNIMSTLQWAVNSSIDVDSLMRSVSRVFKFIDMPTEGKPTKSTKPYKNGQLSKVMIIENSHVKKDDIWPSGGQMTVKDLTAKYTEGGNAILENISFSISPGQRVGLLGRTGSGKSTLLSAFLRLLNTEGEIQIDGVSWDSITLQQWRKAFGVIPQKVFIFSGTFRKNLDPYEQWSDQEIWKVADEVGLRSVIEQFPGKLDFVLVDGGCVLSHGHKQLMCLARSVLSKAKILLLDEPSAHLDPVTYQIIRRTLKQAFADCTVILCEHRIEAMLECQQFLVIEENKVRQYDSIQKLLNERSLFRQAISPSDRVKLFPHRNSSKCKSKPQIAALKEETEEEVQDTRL
# protocol.description: CFTR cell surface levels using HRP-tagged ΔF508-CFTR expressing CFBE cells, in the presence of a co-corrector
# Assay type: cell-based
# assay.conditions: HRP-tagged ΔF508-CFTR expressing CFBE cells, in the presence of 3 μM co-corrector
The following compounds are listed with their measured % Activation values.
Give the value, in units of %, as a plain number.

Past entries and their recorded results:
compound="CN(C)c1ccc(-c2cc(C(=O)O)nc3c2c(C2CC2)nn3C2CCCCC2)cn1 [compound 193]" tested_target="ΔF508-CFTR (Homo sapiens, UniProt P13569, DEL508-508)" measured_metric="% Activation" units_of_measure=% value_observed=402.32
compound="CC(C)(C)OC(=O)N1CCCC1c1nn(-c2ccccc2)c2nc(C(=O)O)cc(-c3ccc(N4CCOCC4)nc3)c12 (stereo not drawn) [compound 103]" tested_target="ΔF508-CFTR (Homo sapiens, UniProt P13569, DEL508-508)" measured_metric="% Activation" units_of_measure=% value_observed=302
compound="Cc1nn(-c2ccccc2)c2nc(C(=O)O)cc(-c3ccc(N4CCC(F)(F)C4)cc3)c12 [compound 111]" tested_target="ΔF508-CFTR (Homo sapiens, UniProt P13569, DEL508-508)" measured_metric="% Activation" units_of_measure=% value_observed=299.8
compound="Cc1nn(-c2ccccc2)c2nc(C(=O)O)cc(C3CCN(CC#N)CC3)c12 [compound 139]" tested_target="ΔF508-CFTR (Homo sapiens, UniProt P13569, DEL508-508)" measured_metric="% Activation" units_of_measure=% value_observed=104.1
compound="CN1CCN(C(=O)C2CCN(c3cc(C(=O)O)nc4c3c(C3CCC3)nn4-c3ccccc3)CC2)CC1 [compound 739]" tested_target="ΔF508-CFTR (Homo sapiens, UniProt P13569, DEL508-508)" measured_metric="% Activation" units_of_measure=% value_observed=327.2
compound="CC1(N2CCCCC2)CCN(c2cc(C(=O)O)nc3c2c(C2CCC2)nn3-c2ccccc2)CC1 [compound 698]" tested_target="ΔF508-CFTR (Homo sapiens, UniProt P13569, DEL508-508)" measured_metric="% Activation" units_of_measure=% value_observed=242.7
compound="CN1C(=O)CO[C@@H]2CN(c3cc(C(=O)O)nc4c3c(C3CCC3)nn4-c3ccccc3)C[C@@H]21 [compound 503]" tested_target="ΔF508-CFTR (Homo sapiens, UniProt P13569, DEL508-508)" measured_metric="% Activation" units_of_measure=% value_observed=220.8
compound="O=C(O)c1cc(N2CCC(CN3CC(OCC(F)F)C3)CC2)c2c(C3CCC3)nn(-c3ccccc3)c2n1 [compound 835]" tested_target="ΔF508-CFTR (Homo sapiens, UniProt P13569, DEL508-508)" measured_metric="% Activation" units_of_measure=% value_observed=466.9
compound="CC(C)c1nn(-c2cccc(N3CCOCC3)c2)c2nc(C(=O)O)cc(-c3ccc(N(C)C4CCOCC4)nc3)c12 [compound 187]" tested_target="ΔF508-CFTR (Homo sapiens, UniProt P13569, DEL508-508)" measured_metric="% Activation" units_of_measure=% value_observed=522
compound="Cc1cccc(-n2nc(C(C)C)c3c(N4CCC(CO)CC4)cc(C(=O)O)nc32)c1 [compound 213]" tested_target="ΔF508-CFTR (Homo sapiens, UniProt P13569, DEL508-508)" measured_metric="% Activation" units_of_measure=% value_observed=456.97

Noted for O=C(O)c1cc(N2CCC(CCN3CCOCC3)CC2)c2c(C3CCC3)nn(C3CCCCC3)c2n1 [compound 807] : its % Activation reads 389.35

Noted for CC(C)c1nn(-c2ccc(F)cc2)c2nc(C(=O)O)cc(N3CCC(N4CCN(C5CC5)CC4)CC3)c12 [compound 754] : its % Activation reads 467.3

Noted for CN(CCN1CCOCC1)c1cc(C(=O)O)nc2c1c(C1CCC1)nn2-c1ccccc1 [compound 565] : its % Activation reads 319.8

Noted for COCCN1CCN(c2cc(C(=O)O)nc3c2c(C2CCC2)nn3-c2ccccc2)CC1 [compound 571] : its % Activation reads 334.05

Noted for Cc1nn(-c2ccccc2)c2nc(C(=O)O)cc(OC[C@@H](F)C3CCN(C)CC3)c12 [compound 379] : its % Activation reads 128.5
